SYSTEM: Protein S100-A4 (Homo sapiens)
TEST_PROTOCOL: inhibitors of S100A4-myosin IIA peptide binding, primary screen, biochemical, fluorescence polarization, TAMRA-MyoIIA peptide (AID 652163)
EXPERIMENTAL_PARAMETERS: at 10.7 µM, stronger effect = higher value
The whole screen tested about 360,000 compounds, of which about 500 (0.14%) were called active. The sample as a whole holds a higher share of actives than the screen did.
Let's look at some compounds and their measured inhibition.
Write down the numeric answer in % and omit the unit.

For orientation, consider the following solved cases.
[[record]]
compound = "O=C(Nc1nccs1)[C@@H]1[C@@H](CO)[C@@H]2Cn3c(ccc(-c4cccnc4)c3=O)[C@@H]2N1CC1CC1"
value_reported = 5.29

[[record]]
compound = "C[C@H]1CN([C@@H](C)CO)C(=O)c2cc(C#CC3CCCC3)cnc2O[C@H]1CN(C)C(=O)c1ccncc1"
value_reported = 11.5

[[record]]
compound = "Cc1ccc(S(=O)(=O)N[C@@H]2CC[C@@H](CCn3cc(C4CC4)nn3)O[C@@H]2CO)cc1"
value_reported = 1.11

[[record]]
compound = "CN(C)C(=O)C[C@H]1C[C@@H]2c3cc(NC(=O)NC4CCCCC4)ccc3O[C@@H]2[C@@H](CO)O1"
value_reported = 12.2

[[record]]
compound = "C=CCN1C(=O)[C@]2(O[C@H](CCn3cc(CCO)nn3)[C@@H]([Si](C)(C)c3ccc(OC)cc3)[C@@H]2C)c2cc(N3CCOC3=O)ccc21"
value_reported = 10.3

[[record]]
compound = "COc1ccc2c(c1)C=CC1(O2)N(CCO)c2ccccc2C1(C)C (stereo not drawn)"
value_reported = 97.1

[[record]]
compound = "COc1cccc(CC2(CO)CCCN(CC3=Cc4cc(OC)ccc4OC3)C2)c1 (stereo not drawn)"
value_reported = -14.5


--- query ---
Please indicate inhibition recorded for "C[C@@H]1CN([C@@H](C)CO)C(=O)c2cccc(NC(=O)Nc3ccc(F)cc3)c2O[C@@H]1CN(C)Cc1ccc(C(=O)O)cc1"
16.9

###

SYSTEM: Protein S100-A4 (Homo sapiens) (UniProt P26447)
Sequence (P26447 whole entry, looked up): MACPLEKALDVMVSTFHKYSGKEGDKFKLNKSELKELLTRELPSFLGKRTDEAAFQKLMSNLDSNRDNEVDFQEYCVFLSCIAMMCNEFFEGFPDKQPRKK
TEST_PROTOCOL: inhibitors of S100A4-myosin IIA peptide binding, primary screen, biochemical, fluorescence polarization, TAMRA-MyoIIA peptide (AID 652163)
EXPERIMENTAL_PARAMETERS: at 10.7 µM, stronger effect = higher value
Hit rate of the full screen: of about 360,000 compounds, about 500 (0.14%) were called active. This is one part of a sample in which actives are shown more often than they occur.
PROPERTY: inhibition (%)
State just the number; it will be interpreted in %.

Please report inhibition with Protein S100-A4 (Homo sapiens) (UniProt P26447) for item "CC(=O)N(C)C[C@@H]1Oc2cc(-c3cccc(F)c3)ccc2S(=O)(=O)N([C@H](C)CO)C[C@H]1C" .
-20.8

Determine reported inhibition for "COCCNC(=O)[C@H]1[C@H](CO)[C@H]2Cn3c(ccc(-c4ccccc4F)c3=O)[C@H]2N1C(=O)C1CCC1" ; test system: Protein S100-A4 (Homo sapiens) (UniProt P26447).
-0.238

Tell me inhibition of "C[C@H]1CN([C@@H](C)CO)C(=O)Cc2cc(NS(=O)(=O)c3cn(C)cn3)ccc2O[C@@H]1CN(C)C(=O)Nc1ccc2c(c1)OCO2" when tested on Protein S100-A4 (Homo sapiens) (UniProt P26447).
1.37

Report its inhibition with Protein S100-A4 (Homo sapiens) (UniProt P26447) as the test system: "CN1c2ccc(-c3cccc(F)c3)cc2[C@H]2[C@H](CCN2C(=O)c2cccc(F)c2)[C@H]1CO"
-3.81

Tell me inhibition of "O=C(NC1CCCCC1)[C@@H]1[C@@H](CO)[C@@H]2Cn3c(cccc3=O)[C@@H]2N1C(=O)CC1CC1" when tested on Protein S100-A4 (Homo sapiens) (UniProt P26447).
1.5

Answer briefly: inhibition recorded on Protein S100-A4 (Homo sapiens) (UniProt P26447) for "C[C@H](CO)N1C[C@H](C)[C@@H](CN(C)C(=O)Nc2ccccc2)Oc2ncc(C3=CCCC3)cc2C1=O"
2.15

State inhibition (Protein S100-A4 (Homo sapiens) (UniProt P26447)) of "C[C@@H]1CN([C@@H](C)CO)S(=O)(=O)c2ccc(C#CCC3CCCC3)cc2O[C@H]1CN(C)Cc1ccc(C(=O)O)cc1" .
-3.27
